test system: SN12C; assay: NCI tumour cell line growth inhibition, 48 h
Active and inactive are the calls of the source. No stated cut-off is given here; in the data, active = GI50 up to about 1.1 µM and inactive = higher.
Metric Name: GI50

// below: answered compounds
COc1ccc(/C=C2/C(=O)N(/C=C3\C(=O)Oc4ccccc4C3=O)/C(=N/C(C)=O)N2C)cc1OC	> 100 µM (inactive)
Cc1c(N)c(C#N)c2n(C)c3ncccc3n2c1=O	> 100 µM (inactive)

Next compound, please.
Prompt: Which measured GI50 value corresponds to COc1ccccc1NC(=O)CC(=O)N1N=C(c2ccccc2)C(/N=N/c2ccc(Cl)cc2)C1=O (stereo unspecified) ?
Completion: 68.1 µM (inactive)

---

The following compounds are listed with their measured GI50 values.
system: Malme-3M; assay: NCI tumour cell line growth inhibition, 48 h
Calls of active or inactive are those of the source. No stated cut-off is given here; in the data, active = GI50 up to about 1.1 µM and inactive = higher.

// below: answered compounds
CC(=O)Oc1ccc2c(c1)c1c(OC(C)=O)c3ccccc3c(OC(C)=O)c1n2Cc1cccc(C)c1	77.6 µM (inactive)
COc1cccc(NC(=O)CC(=O)N2NC(C)C(/N=N/c3cccc(C(=O)O)c3)C2=O)c1 (centres undefined)	> 100 µM (inactive)
Cc1c(C(=O)Nc2ccccc2)nnn1-c1ccnc2cc(C(F)(F)F)ccc12	37 µM (inactive)
CC(=O)OCC1OC(OC2C(COC(C)=O)OC(Sc3ccccc3C)C(OC(C)=O)C2OC(C)=O)C(OC(C)=O)C(OC(C)=O)C1OC(C)=O (centres undefined)	> 100 µM (inactive)
Nc1ncnc2c1ncn2[C@@H]1C[C@@H]1CO	> 100 µM (inactive)

Next compound, please.
Prompt: Which measured GI50 value corresponds to CN1C(=O)C(C)(C)C2(SC(C)(C)C2(C)C)N(C)C1=S (centres undefined) ?
Completion: > 100 µM (inactive)
